# test-method-notes: AUC(0 to infinity) in cynomolgus monkey at 0.3 mg/kg, po
# Type: ADME, organism-based, Macaca fascicularis
# Parameters: time infinity, dose 0.3 mg/kg, route po
# experimental-parameters: in vivo
The label depends only on AUC(0-inf): 1.0 if it is at least 9000 ng·h/mL, 0.0 if it is smaller.

Would you please look over these solved cases?
> print(dat)
                      smiles.representation  category
1  Cc1ccc(-c2nc(=O)o[nH]2)c(-c2ccc([C@@H](C)N(CC3CC3)c3nc(C(=O)NS(=O)(=O)C4CC4)c(C4CC4)s3)cc2)c1       1.0
2  C[C@H](c1ccc(-c2cc(Cl)ccc2C(N)=O)cc1)N(CC1CC1)c1nc(C(=O)NS(=O)(=O)C2CC2)c(C2CC2)s1       0.0
3  CCONC(=O)c1ccc(Cl)cc1-c1ccc([C@@H](C)N(CC2CC2)c2nc(C(=O)NS(=O)(=O)C3CC3)c(C3CC3)s2)cc1       0.0
4  CNC(=O)c1ccc(Cl)cc1-c1ccc([C@@H](C)N(CC2CC2)c2nc(C(=O)NS(=O)(=O)C3CC3)c(C3CC3)s2)cc1       0.0

Now turn to the next compound.
input: Threshold query (AUC(0-inf) >= 9000 ng·h/mL) on CONC(=O)c1ccc(Cl)cc1-c1ccc([C@@H](C)N(CC2CC2)c2nc(C(=O)NS(=O)(=O)C3CC3)c(C3CC3)s2)cc1
output: 0.0
